Biological target: T1, orthogonal hCD122 receptor (hoRb), hCD122 with H133D and Y134F (human, UniProt P14784 27-550)
T1 sequence: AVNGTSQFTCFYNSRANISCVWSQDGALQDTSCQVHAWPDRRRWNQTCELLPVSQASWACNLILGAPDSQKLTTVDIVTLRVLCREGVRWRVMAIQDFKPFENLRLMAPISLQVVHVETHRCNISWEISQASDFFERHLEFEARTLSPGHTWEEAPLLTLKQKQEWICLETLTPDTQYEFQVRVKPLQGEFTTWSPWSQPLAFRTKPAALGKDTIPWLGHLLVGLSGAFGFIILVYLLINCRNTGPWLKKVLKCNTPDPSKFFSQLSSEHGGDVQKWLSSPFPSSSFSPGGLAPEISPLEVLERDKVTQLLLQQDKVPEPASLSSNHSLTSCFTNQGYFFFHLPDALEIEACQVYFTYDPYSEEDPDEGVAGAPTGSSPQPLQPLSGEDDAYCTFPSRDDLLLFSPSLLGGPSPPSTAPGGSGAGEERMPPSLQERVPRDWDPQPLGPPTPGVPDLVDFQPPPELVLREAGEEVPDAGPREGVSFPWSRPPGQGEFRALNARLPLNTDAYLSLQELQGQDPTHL
Experiment: cell-based or functional assay
MEASURED METRIC: 3F8 Ortho Proliferation Signal 1:2 (cts/min)

>  <BINDER>
ΔA1, SQVLKA (ligand) PTSSSTKKTQLQLSQLLVLLKAILNGINNYKNPKLTRMLTFKFYMPKKATELKHLQCLEEELKPLEEVLNLAQSKNFHLRPRDLISNINVIVLELKGSETTFMCEYADETATIVEFLNRWITFCQSIISTLT

>  <MEASURED METRIC>
3F8 Ortho Proliferation Signal 1:2

>  <NUMERIC RESULT>
32400

$$$$
>  <BINDER>
G27K, SQVLKA (ligand) APTSSSTKKTQLQLSQLLVLLKAILNKINNYKNPKLTRMLTFKFYMPKKATELKHLQCLEEELKPLEEVLNLAQSKNFHLRPRDLISNINVIVLELKGSETTFMCEYADETATIVEFLNRWITFCQSIISTLT

>  <MEASURED METRIC>
3F8 Ortho Proliferation Signal 1:2

>  <NUMERIC RESULT>
37800

$$$$
>  <BINDER>
T3P, SQVLKA (ligand) APPSSSTKKTQLQLSQLLVLLKAILNGINNYKNPKLTRMLTFKFYMPKKATELKHLQCLEEELKPLEEVLNLAQSKNFHLRPRDLISNINVIVLELKGSETTFMCEYADETATIVEFLNRWITFCQSIISTLT

>  <MEASURED METRIC>
3F8 Ortho Proliferation Signal 1:2

>  <NUMERIC RESULT>
36500

$$$$
>  <BINDER>
L85V, SQVLKA (ligand) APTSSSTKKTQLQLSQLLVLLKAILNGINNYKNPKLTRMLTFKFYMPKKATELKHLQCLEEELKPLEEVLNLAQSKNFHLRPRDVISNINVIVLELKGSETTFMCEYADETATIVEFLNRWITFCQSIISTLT

>  <MEASURED METRIC>
3F8 Ortho Proliferation Signal 1:2

>  <NUMERIC RESULT>
44300

$$$$
>  <BINDER>
L14M, SQVLKA (ligand) APTSSSTKKTQLQMSQLLVLLKAILNGINNYKNPKLTRMLTFKFYMPKKATELKHLQCLEEELKPLEEVLNLAQSKNFHLRPRDLISNINVIVLELKGSETTFMCEYADETATIVEFLNRWITFCQSIISTLT

>  <MEASURED METRIC>
3F8 Ortho Proliferation Signal 1:2

>  <NUMERIC RESULT>
39800

$$$$
>  <BINDER>
ΔL19, SQ_LKA (ligand) APTSSSTKKTQLQLSQLLLLKAILNGINNYKNPKLTRMLTFKFYMPKKATELKHLQCLEEELKPLEEVLNLAQSKNFHLRPRDLISNINVIVLELKGSETTFMCEYADETATIVEFLNRWITFCQSIISTLT

>  <MEASURED METRIC>
3F8 Ortho Proliferation Signal 1:2

>  <NUMERIC RESULT>
736

$$$$
>  <BINDER>
SQVLAA (ligand) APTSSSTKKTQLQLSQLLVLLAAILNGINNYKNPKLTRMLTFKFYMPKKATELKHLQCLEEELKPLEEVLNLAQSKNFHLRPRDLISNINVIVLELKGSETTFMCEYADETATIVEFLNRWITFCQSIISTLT

>  <MEASURED METRIC>
3F8 Ortho Proliferation Signal 1:2

>  <NUMERIC RESULT>
15900

$$$$

The reported numbers originate from patent US20210196796A1.
